# Test system: SNB-19
# assay procedure: NCI tumour cell line growth inhibition, 48 h
Active and inactive are the calls of the source. Rule as the data show it: active = GI50 up to about 1.1 µM and inactive = higher.
quantity measured: GI50

INSERT INTO results (compound, test_system, recorded_measurement) VALUES
  ('CC(=O)O[C@H]1[C@@H](N2CCN(C)CC2)C[C@H]2[C@@H]3CC=C4C[C@@H](N5CCCC5)CC[C@]4(C)[C@H]3CC[C@@]21C', 'SNB-19', '> 100 µM (inactive)'),
  ('Cc1ccc(S(=O)(=O)N/N=C/C(=C/c2ccc(Cl)cc2)CC(/C=N/NS(=O)(=O)c2ccc(C)cc2)=C\c2ccc(Cl)cc2)cc1', 'SNB-19', '8.77 µM (inactive)'),
  ('CC(C)C(=O)CP(=O)(O)O', 'SNB-19', '> 100 µM (inactive)'),
  ('COc1c(-c2nc3ccc(N4CCN(C)CC4)nc3[nH]2)cc(OC)c2c1nc(CO)n2C', 'SNB-19', '> 100 µM (inactive)'),
  ('OCCCNc1[nH]cnc2nncc1-2', 'SNB-19', '> 100 µM (inactive)'),
  ('COc1ccc2c(c1)[n+]([O-])c(C(=O)CC(=O)C(=O)Nc1cccc(Cl)c1C)c(C)[n+]2[O-]', 'SNB-19', '> 100 µM (inactive)'),
  ('CC(C)(C)OC(=O)CN1CCN(CC(=O)N2CCN(C(=O)OCc3ccccc3)CC2)CCN(CC(=O)OC(C)(C)C)CCN(CC(=O)N2CCN(C(=O)OCc3ccccc3)CC2)CC1', 'SNB-19', '3.48 µM (inactive)'),
  ('O=C(Nc1nncs1)NS(=O)(=O)n1cnc2ccccc21', 'SNB-19', '> 100 µM (inactive)'),
  ('Cc1ccc(S(=O)(=O)NC(=O)N[C@@H](Cc2c[nH]cn2)C(=O)O)cc1', 'SNB-19', '> 100 µM (inactive)'),
  ('C/C1=C/C[C@@H](/C(C)=C/c2csc(C)n2)OC(=O)C[C@H](O)C(C)(C)C(=O)[C@H](C)[C@@H](O)[C@@H](C)CCC1', 'SNB-19', '< 0.0001 µM (active)'),
  ('O=C1c2cc3c(cc2CC12Cc1ccccc1C2)CCC3', 'SNB-19', '> 100 µM (inactive)'),
  ('Cc1[nH]c2ncn(N)c(=N)c2c1Cc1ccccc1', 'SNB-19', '> 100 µM (inactive)'),
  ('CC(C)NC(=O)CCN(C(=O)O)S(=O)(=O)c1ccc(NC(=O)c2ccccc2)cc1', 'SNB-19', '> 100 µM (inactive)'),
  ('CCCCCCCC1(c2ccc(N)cc2)CCC(=O)NC1=O (stereo not given)', 'SNB-19', '47.4 µM (inactive)'),
  ('CS(=O)(=O)NNS(=O)(=O)c1ccc(Cl)cc1', 'SNB-19', '> 100 µM (inactive)'),
  ('CC(=O)N1NC(c2ccccc2)=CC(=O)/C1=C/C(=O)c1ccccc1', 'SNB-19', '58.7 µM (inactive)'),
  ('CSc1nc(C)c(CCOC(C)=O)c(Cl)n1', 'SNB-19', '> 100 µM (inactive)'),
  ('CCOc1ccc(C2=C(Cl)c3cc(OC)c(OC)cc3C2Cl)cc1 (stereo not given)', 'SNB-19', '> 100 µM (inactive)'),
  ('O=C(Cc1ccccc1)NN1C(=O)C(Cl)C1c1ccc(Cl)cc1 (stereo not given)', 'SNB-19', '69.8 µM (inactive)'),
  ('CC1C[C@]2(C)C(=S)Nc3ccccc3[C@@H]2Nc2ccccc21 (stereo not given in full)', 'SNB-19', '21.7 µM (inactive)');
